Please go through the items and note down their TGI.
# System: MDA-N
# experimentDescription: NCI tumour cell line growth inhibition, 48 h

Q: Check the records and state TGI for Cc1ccc(S(=O)(=O)N/N=C2\CC3C4C=CC3C2C4)cc1 (stereo not drawn)
Result: > 100 µM

Q: Check the records and state TGI for COc1ccc2[nH]c(S(=O)(=O)N3CC(CCl)c4ccc(N)cc43)cc2c1 (stereo not drawn)
Result: < 0.0189 µM

Q: Check the records and state TGI for CCOC(=O)C1(C)CCc2sc(N)c(C#N)c21 (stereo not drawn)
Result: > 100 µM

====

# Test system: HCC-2998 colon
# experimentDescription: NCI tumour cell line growth inhibition, 48 h; in the data active means GI50 below about 0.43 µM; inactive means the rest
*1 amine or outer side, *2 acyl side, *3 side chain or, on linkers, in order; H or OH if unused. Where a SMILES comes first, the peptide text is derived from it. Bridges are numbered along the chain shown (N, C = ends). [ ]: non-standard residue; d: D form. Adda = CO[C@@H](Cc1ccccc1)[C@@H](C)/C=C(C)/C=C/[C@H](N[*:1])[C@H](C)C(=O)[*:2]; dAsp(3S-Me) = C[C@H](C(=O)[*:3])[C@@H](N[*:1])C(=O)[*:2]; d(γGlu) = O=C(O)[C@@H](CCC(=O)[*:2])N[*:1]; NMeDha = C=C(NC)C(=O)O
Select the matching outcome among active, inactive

Q: Test call for this compound, please: O=c1c2cc(F)ccc2sc2c(N3CCNCC3)nc3ccccc3c12
Result: inactive

Q: Test call for this compound, please: COc1cc(NCCCCCN=C(N)N)c2ncccc2c1
Result: inactive

Q: Test call for this compound, please: O=c1c2ccc3cccc4c(=O)c5ccc6cccc1c6c5-c2c34
Result: inactive

Q: Test call for this compound, please: CN(C)CCCOc1ccc(OCCCN(C)C)c2c1C(=O)c1ccccc1C2=O
Result: inactive

Q: Test call for this compound, please: C=C1C(=O)N[C@H](C)C(=O)N[C@@H](CC(C)C)C(=O)N[C@@H](C(=O)O)[C@H](C)C(=O)N[C@@H](CCCN=C(N)N)C(=O)N[C@@H](/C=C/C(C)=C/[C@H](C)[C@H](Cc2ccccc2)OC)[C@H](C)C(=O)N[C@@H](C(=O)O)CCC(=O)N1C (R[Adda][d(γGlu)][NMeDha][dA]L[dAsp(3S-Me)]-OH; lactam N-7)
Result: inactive

Q: Test call for this compound, please: Fc1cnc(NC2CC2)nc1-c1cnc2ccc(N3CCOCC3)cn12
Result: active

Q: Test call for this compound, please: O=C(/C=C/c1ccc(Cl)cc1)/C=C/c1cc2ccccc2[nH]c1=O
Result: inactive

Q: Test call for this compound, please: C[C@@H]1C[N+]2([O-])[C@H]3C4=CCC[C@@H]4CC[C@H]3[C@@]3(C)OC(=O)CC[C@]34CC[C@H]1[C@@H]42 (some centres undefined)
Result: inactive

Q: Test call for this compound, please: CCN1CCN(c2cc(C)nc(N(CCNc3ccnc4cc(Cl)ccc34)Cc3ccc4c(c3)OCO4)n2)CC1
Result: inactive

Q: Test call for this compound, please: CCn1cc(C(=O)O)c(=O)c2cc(F)c(N3CCN(S(=O)(=O)c4ccc(Cl)cc4)CC3)cc21
Result: inactive

Q: Test call for this compound, please: O=C(Nc1ccc(CN2CCOCC2)cc1)c1ccc(-c2cc(Cl)ccc2Cl)o1
Result: inactive

Q: Test call for this compound, please: COc1cccc2c1C(=O)c1c(O)c3c(c(O)c1C2=O)C[C@@](O)(C(C)O)C[C@@H]3OC1CC(N)C(O)C(C)O1 (some centres undefined)
Result: inactive

Q: Test call for this compound, please: CCOC(=O)N1C/C(=C/c2ccc(F)cc2)C(=O)/C(=C/c2ccc(F)cc2)C1
Result: inactive

Q: Test call for this compound, please: N=C(N)N=Nc1ccc(NN=C(N)N)c2c1ncc1c2nc2sccn21
Result: inactive
